Sourced from the supplement of paper PMC11208160

Experiment: recombinant barcode read abundance after kanamycin selection (control-corrected) (log10(CPM+1)); higher = more efficient recombination; sequences stand for … in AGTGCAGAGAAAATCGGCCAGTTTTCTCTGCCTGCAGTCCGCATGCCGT…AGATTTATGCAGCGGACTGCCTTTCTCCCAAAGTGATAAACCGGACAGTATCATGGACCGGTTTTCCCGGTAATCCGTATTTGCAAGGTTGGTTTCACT; site = the 11-nt target
Category | rule: reported recombinant barcode read abundance (log10) within range, see zone 1: < 0.2; zone 2: ≥ 0.2 and < 0.6; zone 3: ≥ 0.6

Ask | Place this sequence in its band: AAATTGACTTGGGTTCTAACCTGTTGCCT (site AAATTGACTAG)
Reply | zone 3

Ask | Also CAAACAGCTTGGGTTCTAACCTGTTGCCT (site CAAACACCTAG) ?
Reply | zone 3

Ask | Same lookup for TAGAACTCTTGGGTTCTAACCTGTTGCCG (site TAGAACTCTAG) , please.
Reply | zone 2

Ask | One more sequence: TAGCCCACTTGGGTTCTAACCTGTTGCGG (site TAGCACACTCC)
Reply | zone 1

Ask | Now consider GGCTCCTCTTGGGTTCTAACCTGTTGCCT (site AGCTCCTCTAG) .
Reply | zone 3

Ask | ACGATATCTTGGGTTCTAACCTGTTGCCT (site AGGATATCTAG) , same question.
Reply | zone 2

Ask | Next record, please: CTCCTACCTTGGGTTCTAACCTGTTGCCT (site CTCCTACCTAG)
Reply | zone 3

Ask | Now this one: GCGGAGTCTTGGGTTCTAACCTGTTGCGT (site GCGGAGTCTAC)
Reply | zone 3

Ask | Query AACTTGACTTGGGTTCTAACCTGTTGCCT (site AAATTGACTAG) next
Reply | zone 2

Ask | Again, but for CTTCAATCTTGGGTTCTAACCTGTTGCCT (site CTTTAATCTAG)
Reply | zone 1

Ask | What do you have for GTTGAGTCTTGGGTTCTAACCTGTTGCGT (site GTTGAGTCTAC) ?
Reply | zone 3

Ask | Also CTTGGGCCTTGGGTTCTAACCTGTTGCCT (site CATGGGCCTAG) , if possible.
Reply | zone 1

Ask | Now consider CTACACCCTTGGGTTCTAACCTGTTGCGA (site CTAAACCCTAC) and answer again.
Reply | zone 1

Ask | Check GTATATACTTGGGTTCTAACCTGTTGCCT (site GTGTATACTAG) too.
Reply | zone 2

Ask | Another: TTATGGGCTTGGGTTCTAACCTGTTGCCG (site TCCTGGGCTCG)
Reply | zone 1

Ask | Try this sequence too: TACGCTCCTTGGGTTCTAACCTGTTGCCT (site TACGCTCCTAT)
Reply | zone 2

Ask | One more sequence: GAGCCACCTTGGGTTCTAACCTGTTGCCA (site GAGCCACCTTG)
Reply | zone 3

Ask | Then this sequence: CTTGGAACTTGGGTTCTAACCTGTTGCCT (site CTTGGAACTAG)
Reply | zone 2

Ask | Proceed to CAAAAGGCTTGGGTTCTAACCTGTTGCAG (site CAAAGGGCTCT)
Reply | zone 2

Ask | Same question for AGTCTGCCTTGGGTTCTAACCTGTTGCTG (site AGTCTGCCTCA) please.
Reply | zone 3

###

Experiment: recombinant barcode read abundance after kanamycin selection (control-corrected) (log10(CPM+1)); higher = more efficient recombination; sequences stand for … in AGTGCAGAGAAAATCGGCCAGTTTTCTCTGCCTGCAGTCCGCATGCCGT…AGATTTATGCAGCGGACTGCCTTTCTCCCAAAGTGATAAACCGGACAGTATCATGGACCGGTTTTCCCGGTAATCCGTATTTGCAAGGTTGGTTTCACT; site = the 11-nt target
Label satisfied when recombinant barcode read abundance (log10) is at or above 0.08; anything below gets not satisfied.

Ask | API: above_or_equal(metric=recombinant barcode read abundance (log10), cutoff=0.08) for item GGTCCTGCTTGGGTTCTAACCTGTTGCCT (site CGTCCTGCTAG)
Reply | not satisfied

Ask | Then AAATTGACTTGGGTTCTAACCTGTTGCCT (site AAGTTGACTAG) ?
Reply | satisfied

Ask | Next entry: TAAAAGCCTTGGGTTCTAACCTGTTGCCT (site TAAAAGACTAG)
Reply | not satisfied

Ask | Another sequence to check: ACGTCCACTTGGGTTCTAACCTGTTGCCT (site ACGTCCACTAG)
Reply | not satisfied

Ask | What would you report for GTGTGTTCTTGGGTTCTAACCTGTTGCCA (site TTGTGTTCTTA) ?
Reply | satisfied

Ask | Also need ACGCACGCTTGGGTTCTAACCTGTTGCGG (site ACGCACGCTCC) , thanks.
Reply | satisfied

Ask | Let us now turn to GACCGTCCTTGGGTTCTAACCTGTTGCAT (site GACCGTCCTAT)
Reply | satisfied

Ask | Again, but for TACGACACTTGGGTTCTAACCTGTTGCCT (site TCCGACACTAG)
Reply | not satisfied

Ask | // repeat for ATCTTAACTTGGGTTCTAACCTGTTGCCT (site ATCTTACCTAG) and report
Reply | satisfied

Ask | Queued: CGGTAATCTTGGGTTCTAACCTGTTGCTT (site ACGTAATCTAA)
Reply | not satisfied

Ask | What about this sequence? AGATCATCTTGGGTTCTAACCTGTTGCTT (site AGATCATCTAA)
Reply | satisfied

Ask | Input TAGCCTACTTGGGTTCTAACCTGTTGCGA (site TAGCCTACTGC)
Reply | not satisfied

Ask | Another: AAGGCTACTTGGGTTCTAACCTGTTGCCT (site AAGGCTTCTAG)
Reply | satisfied

Ask | And what about the sequence TGGCGTGCTTGGGTTCTAACCTGTTGCCT (site TGGCGTGCTAG) ?
Reply | satisfied

Ask | Moving on to TGCTCTACTTGGGTTCTAACCTGTTGCTT (site TGGTCTACTAA)
Reply | satisfied

Ask | Proceed to AGGGCAGCTTGGGTTCTAACCTGTTGCCT (site AGGGCAGCTAG)
Reply | satisfied

Ask | Same read-out for GCCCTATCTTGGGTTCTAACCTGTTGCCT (site GCCCCATCTAG) ?
Reply | satisfied

Ask | Next entry: GGCACTCCTTGGGTTCTAACCTGTTGCCT (site GGCATTCCTAG)
Reply | satisfied

Ask | And what about the sequence CCAGGAGCTTGGGTTCTAACCTGTTGCAG (site TCTGGAGCTCT) ?
Reply | satisfied

Ask | Same read-out for GCGTCACCTTGGGTTCTAACCTGTTGCCT (site CCGTCACCTAG) ?
Reply | not satisfied

###

Please respond with reported recombinant UMI read abundance (log10) for every item in the list.
Test: recombinant UMI read abundance after kanamycin selection (control-corrected) (log10(CPM+1)); higher = more efficient recombination; extreme values may be limits of the assay; sequences stand for … in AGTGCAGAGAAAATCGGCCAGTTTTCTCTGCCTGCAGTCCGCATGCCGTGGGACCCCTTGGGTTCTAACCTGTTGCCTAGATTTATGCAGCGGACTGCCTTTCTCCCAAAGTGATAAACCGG…AGGTTGGTTTCACT; site = the 11-nt donor
// return just the number, without any unit appended

Ask | State the recorded recombinant UMI read abundance (log10) for this entry: TAATGAACATGGACCGGTTTTCCCGGTAATCCGTATTTGGG (site TAATGAGCTCC)
Reply | 0.0277

Ask | CCCCAGCCATGGACCGGTTTTCCCGGTAATCCGTATTTGCC (site CCCTAGCCTGG) , same question.
Reply | 0

Ask | Okay, and GAGCATGCATGGACCGGTTTTCCCGGTAATCCGTATTTGGT (site GCGCATGCTAC) ?
Reply | 0.474

Ask | And the next one, CAATCATCATGGACCGGTTTTCCCGGTAATCCGTATTTGCT (site CCATCATCTAG) ?
Reply | 0.883

Ask | Repeat for the following sequence: GTTAGAACATGGACCGGTTTTCCCGGTAATCCGTATTTGGA (site GTTAGAACTGC)
Reply | 0

###

Assay: recombinant barcode read abundance after kanamycin selection (control-corrected) (log10(CPM+1)); higher = more efficient recombination; sequences stand for … in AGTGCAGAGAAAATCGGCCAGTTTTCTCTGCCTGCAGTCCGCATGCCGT…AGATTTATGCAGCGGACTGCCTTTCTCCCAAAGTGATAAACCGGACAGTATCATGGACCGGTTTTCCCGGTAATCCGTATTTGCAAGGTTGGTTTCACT; site = the 11-nt target
Classification by recombinant barcode read abundance (log10) | ranges: Low: < 0.2; Medium: ≥ 0.2 and < 1; High: ≥ 1

Ask | Lab log: GAGACAGCTTGGGTTCTAACCTGTTGCCT (site GAAACAGCTAG) — assign recombinant barcode read abundance (log10) category
Reply | Medium

Ask | Now the sequence GTGCCTGCTTGGGTTCTAACCTGTTGCCT (site GTGCCTGCTAG)
Reply | High

Ask | One more sequence: TAGAACACTTGGGTTCTAACCTGTTGCTA (site TAGAACACTTA)
Reply | Medium

Ask | Also check ACAGGCTCTTGGGTTCTAACCTGTTGCCT (site ACAGGCTCTAG)
Reply | High

Ask | Proceed to TAGGCGACTTGGGTTCTAACCTGTTGCCA (site ACCTTAGCTAA)
Reply | Low

Ask | Another: CTTAGGACTTGGGTTCTAACCTGTTGCCG (site CTTAGGACTGG)
Reply | Low

Ask | Next sequence: GAGGAGTCTTGGGTTCTAACCTGTTGCCT (site GAGGAGTCTAG)
Reply | High

Ask | Same question for AACTTCGCTTGGGTTCTAACCTGTTGCCT (site AACTTCCCTAG) please.
Reply | Low

Ask | Cool, now GATACGACTTGGGTTCTAACCTGTTGCCT (site GATACGGCTAG)
Reply | Low

Ask | And CCTCGGACTTGGGTTCTAACCTGTTGCAT (site CCTCGGACTAT) ?
Reply | High
